Values were extracted from patent US9434711B2.

For each record, write down the corresponding % Inhibition.
# Test system: Male Sprague Dawley rats
# EXPERIMENT_NOTES: Inhibition of Icilin-Induced "Wet-Dog" Shakes in Rats
# Type: in vivo, rat
# CONDITION_DESCRIPTION: dose 30 p.o., HPbCD, 30 min pre-icilin, Na salt form
Give a bare numeral; the unit % is implied.

Prompt: Quote Male Sprague Dawley rats % Inhibition for entry O=S(=O)(c1ccc(-c2nnn[nH]2)cc1)N(CCCC(F)(F)F)c1sc2ccccc2c1Br .
Response: 41

Prompt: Tell me its % Inhibition on Male Sprague Dawley rats: Cc1c(N(CCC(F)(F)F)S(=O)(=O)c2ccc(C(=O)[O-])cc2)sc2ccccc12.[Na+]
Response: 16

Prompt: Enter % Inhibition (test system Male Sprague Dawley rats) for CCCCN(c1sc2ccccc2c1C)S(=O)(=O)c1ccc(C(=O)[O-])cc1.[Na+]
Response: 7

Prompt: Provide % Inhibition, system Male Sprague Dawley rats, entry Cc1c(N(CCC2CC2)S(=O)(=O)c2ccc(C(=O)[O-])cc2)sc2ccccc12.[Na+]
Response: 84

====

# SYSTEM_UNDER_TEST: canine TRPM8 (Canis lupus familiaris)
# EXPERIMENT_NOTES: In Vitro Canine TRPM8 Functional Assay (Ca2+ fluorescence, icilin activation)
# Assay type: cell-based
# CONDITION_DESCRIPTION: HEK293 cells stably expressing canine TRPM8; icilin activation; eight-point dose-response; read-out: IC50
Exam item: assign Condition met to entries whose IC50 is below 40 nM and Condition not met to entries at or above 40 nM. Note that a value of exactly 40 nM receives Condition not met.

Prompt: Could you please tell me whether IC50 recorded for O=S(=O)(c1ccccc1)N(CCN1CCCCC1)c1sc2ccccc2c1Br is less than 40 nM?
Response: Condition met

Prompt: Lab note: IC50 threshold 40 nM. Does this compound come in strictly under it? COc1cc(NS(C)(=O)=O)ccc1S(=O)(=O)N(Cc1ccc(F)c(C(F)(F)F)c1)c1sc2ccccc2c1Cl
Response: Condition not met

Prompt: In the record for COC(=O)c1ccc(S(=O)(=O)N(Cc2ccc(F)c(C(F)(F)F)c2)c2sc3ccccc3c2C2CC2)cc1 , is IC50 less than 40 nM?
Response: Condition not met

Prompt: Is IC50 of Cc1c(N(Cc2ccc(F)c(C(F)(F)F)c2)S(=O)(=O)CCCO)sc2ccccc12 strictly below 40 nM?
Response: Condition met

Prompt: Dear reviewer, please state whether Cc1c(N(Cc2ccc(F)c(C(F)(F)F)c2)S(=O)(=O)c2cccnc2)sc2ccccc12 has IC50 strictly beneath 40 nM.
Response: Condition met

Prompt: In plain terms, does CCCCN(c1sc2ccccc2c1C(C)=O)S(=O)(=O)c1ccc(Br)cc1 come in under 40 nM for IC50?
Response: Condition not met

Prompt: Given the entry O=S(=O)(c1cnccc1Cl)N(Cc1ccc(F)c(C(F)(F)F)c1)c1sc2ccccc2c1Cl , would its reported IC50 be below 40 nM?
Response: Condition met

Prompt: Below 40 nM on IC50? Entry O=S(=O)(c1ccc(-c2nnn[nH]2)cc1)N(CCC1CC1)c1cc2ccccc2s1
Response: Condition met

====

Answer each item with its documented pIC50.
# SYSTEM_UNDER_TEST: canine TRPM8 (Canis lupus familiaris, UniProt Q1A7N1)
# Sequence (Q1A7N1 1-1104): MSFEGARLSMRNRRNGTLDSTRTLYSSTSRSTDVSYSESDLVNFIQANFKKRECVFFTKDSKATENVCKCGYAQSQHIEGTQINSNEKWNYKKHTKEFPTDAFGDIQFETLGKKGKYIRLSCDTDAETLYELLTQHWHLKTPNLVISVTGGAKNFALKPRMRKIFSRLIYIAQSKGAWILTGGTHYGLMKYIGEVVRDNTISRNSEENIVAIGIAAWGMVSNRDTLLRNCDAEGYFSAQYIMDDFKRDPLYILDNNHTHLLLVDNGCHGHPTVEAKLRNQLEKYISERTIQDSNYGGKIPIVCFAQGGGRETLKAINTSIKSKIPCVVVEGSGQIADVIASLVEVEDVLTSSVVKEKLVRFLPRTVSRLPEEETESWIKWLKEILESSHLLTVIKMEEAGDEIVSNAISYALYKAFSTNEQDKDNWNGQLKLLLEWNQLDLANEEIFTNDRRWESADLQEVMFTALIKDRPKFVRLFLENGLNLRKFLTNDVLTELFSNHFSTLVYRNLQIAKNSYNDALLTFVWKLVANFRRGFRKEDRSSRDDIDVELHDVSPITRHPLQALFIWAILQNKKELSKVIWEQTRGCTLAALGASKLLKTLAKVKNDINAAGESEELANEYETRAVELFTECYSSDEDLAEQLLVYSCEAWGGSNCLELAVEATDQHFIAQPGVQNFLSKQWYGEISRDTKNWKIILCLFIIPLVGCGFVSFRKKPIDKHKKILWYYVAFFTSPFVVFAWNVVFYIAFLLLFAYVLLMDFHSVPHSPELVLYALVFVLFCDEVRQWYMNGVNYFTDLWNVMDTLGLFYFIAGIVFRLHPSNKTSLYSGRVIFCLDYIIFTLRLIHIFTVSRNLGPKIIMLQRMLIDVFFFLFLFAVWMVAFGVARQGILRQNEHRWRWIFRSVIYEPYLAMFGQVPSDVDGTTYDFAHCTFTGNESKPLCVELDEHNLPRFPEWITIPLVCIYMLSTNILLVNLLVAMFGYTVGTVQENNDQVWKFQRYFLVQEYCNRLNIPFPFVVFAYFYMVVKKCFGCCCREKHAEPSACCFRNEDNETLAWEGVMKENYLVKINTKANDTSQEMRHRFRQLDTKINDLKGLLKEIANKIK
# EXPERIMENT_NOTES: In Vitro Canine TRPM8 Functional Assay (Ca2+ fluorescence, icilin activation)
# Type: cell-based
# CONDITION_DESCRIPTION: HEK293 cells stably expressing canine TRPM8; icilin activation; eight-point dose-response; read-out: IC50
Convention used: pIC50 is expressed as -log10 of the molar concentration.

Prompt: Provide measured pIC50 value, entry: Cc1c(N(Cc2cc(F)c(F)c(F)c2)S(=O)(=O)c2ccc(C(=O)O)cc2)sc2ccccc12 [Compound 517]
Response: 8.70

Prompt: Determine from records and report pIC50 for CC(C)(O)C1=C(N(Cc2ccc(F)c(C(F)(F)F)c2)S(=O)(=O)c2ccccc2)S(=O)(=O)c2ccccc21 [Compound 463]
Response: 7.59

Prompt: Indicate its recorded pIC50; the molecule in question is CC(O)c1c(N(Cc2ccc(F)c(C(F)(F)F)c2)S(=O)(=O)c2ccccc2)sc2ccccc12 (centres unmarked) [Compound 223]
Response: 8.64

Prompt: Return value of pIC50 for input Nc1ccc(S(=O)(=O)N(CCC(F)(F)F)c2sc3ccccc3c2Br)cc1 [Compound 587] , no commentary.
Response: 8.41

Prompt: For the molecule COc1cc(CN(c2cc3ccccc3s2)S(=O)(=O)c2ccccc2)ccc1F [Compound 60] , give its measured pIC50 value.
Response: 7.55

Prompt: Give pIC50 for the following molecule: O=S(=O)(c1ccccc1)N(Cc1cccc(OC(F)(F)F)c1)c1cc2ccccc2s1 [Compound 57]
Response: 6.97

Prompt: Provide one value: measured pIC50 of CCCCN(c1sc2ccccc2c1Br)S(=O)(=O)c1ccccc1 [Compound 231]
Response: 7.54

Prompt: Give a short answer stating reported pIC50 for CC(=O)c1ccc(S(=O)(=O)N(Cc2ccc(F)c(C(F)(F)F)c2)c2cc3ccccc3s2)cc1 [Compound 308] .
Response: 7.16

====

Give IC50 for every item shown.
# SYSTEM_UNDER_TEST: canine TRPM8 (Canis lupus familiaris, UniProt Q1A7N1)
# EXPERIMENT_NOTES: In Vitro Canine TRPM8 Functional Assay (Ca2+ fluorescence, icilin activation)
# Assay type: cell-based
# CONDITION_DESCRIPTION: HEK293 cells stably expressing canine TRPM8; icilin activation; eight-point dose-response; read-out: IC50
State the answer as a number, implicitly in nM.

Prompt: # assay system canine TRPM8 (Canis lupus familiaris, UniProt Q1A7N1): give IC50 of Cc1c(N(Cc2ccc(C(F)(F)F)c(F)c2)S(=O)(=O)c2ccc(C(=O)O)cc2)sc2ccccc12
Response: 0.4

Prompt: Report IC50 on canine TRPM8 (Canis lupus familiaris, UniProt Q1A7N1) for this entry: O=Cc1c(N(Cc2ccc(F)c(C(F)(F)F)c2)S(=O)(=O)c2ccc(C(=O)O)cc2)sc2ccccc12
Response: 3

Prompt: Please respond with reported IC50 (system canine TRPM8 (Canis lupus familiaris, UniProt Q1A7N1)) for Cc1c(N(Cc2ccc(F)c(C(F)(F)F)c2)S(=O)(=O)c2cnccc2N(C)C)sc2ccccc12 .
Response: 41

Prompt: Find the measured IC50 of O=C(O)c1ccc(S(=O)(=O)N(CC2CCCC2)c2sc3ccccc3c2Br)cc1 with canine TRPM8 (Canis lupus familiaris, UniProt Q1A7N1) as test system.
Response: 2

Prompt: // output IC50; input O=C(O)c1ccc(S(=O)(=O)N(CCOC2CCCCC2)c2sc3ccccc3c2Br)cc1 ; system canine TRPM8 (Canis lupus familiaris, UniProt Q1A7N1)
Response: 2

Prompt: // fetch IC50; item: CCS(=O)(=O)N(CC(F)F)c1sc2ccccc2c1Br ; system: canine TRPM8 (Canis lupus familiaris, UniProt Q1A7N1)
Response: 203

Prompt: Provide IC50, system canine TRPM8 (Canis lupus familiaris, UniProt Q1A7N1), entry Nc1ccc(S(=O)(=O)N(Cc2ccc(F)c(C(F)(F)F)c2)c2sc3ccccc3c2Br)cc1Br
Response: 6

Prompt: Enter IC50 (test system canine TRPM8 (Canis lupus familiaris, UniProt Q1A7N1)) for Cc1c(N(Cc2ccc(F)c(F)c2)S(=O)(=O)N(C)C)sc2ccccc12
Response: 7

Prompt: Find IC50 for CS(=O)(=O)N(Cc1ccc(F)c(C(F)(F)F)c1)c1sc2ccccc2c1Br on canine TRPM8 (Canis lupus familiaris, UniProt Q1A7N1) and write it down.
Response: 14

Prompt: Give IC50 for this entry on canine TRPM8 (Canis lupus familiaris, UniProt Q1A7N1): COC(=O)[C@@H](C)CN(c1sc2ccccc2c1C)S(=O)(=O)c1ccccc1
Response: 18

Prompt: Please report the measured IC50 for COC(=O)c1cccc(S(=O)(=O)N(Cc2ccc(F)c(C(F)(F)F)c2)c2sc3ccccc3c2Cl)c1 tested on canine TRPM8 (Canis lupus familiaris, UniProt Q1A7N1).
Response: 47.3

Prompt: Return reported IC50 for target or system canine TRPM8 (Canis lupus familiaris, UniProt Q1A7N1), item O=S(=O)(c1ccccc1)N(Cc1ccc(F)c(C(F)(F)F)c1)c1sc2ccccc2c1Br .
Response: 5.7

Prompt: Check canine TRPM8 (Canis lupus familiaris, UniProt Q1A7N1) data and give IC50 for Cc1c(N(Cc2ccc(F)cc2C(F)(F)F)S(=O)(=O)c2ccc(C(=O)O)cc2)sc2ccccc12 .
Response: 4

Prompt: Please report the measured IC50 for O=S(=O)(c1ccccc1)N(Cc1ccccn1)c1cc2ccccc2s1 tested on canine TRPM8 (Canis lupus familiaris, UniProt Q1A7N1).
Response: 116

Prompt: Fetch value of IC50 on canine TRPM8 (Canis lupus familiaris, UniProt Q1A7N1) for CC(=O)c1c(N(Cc2ccc(F)c(C(F)(F)F)c2)S(=O)(=O)c2ccc(C(=O)O)cc2)sc2ccccc12 .
Response: 15

Prompt: Print canine TRPM8 (Canis lupus familiaris, UniProt Q1A7N1) IC50 for Cc1c(N(Cc2ccc(F)c(C(F)(F)F)c2)S(=O)(=O)CCCCBr)sc2ccccc12 .
Response: 7.2
